molecular target: Tyrosine-protein kinase Lck (Homo sapiens)
Sequence (P06239 whole entry): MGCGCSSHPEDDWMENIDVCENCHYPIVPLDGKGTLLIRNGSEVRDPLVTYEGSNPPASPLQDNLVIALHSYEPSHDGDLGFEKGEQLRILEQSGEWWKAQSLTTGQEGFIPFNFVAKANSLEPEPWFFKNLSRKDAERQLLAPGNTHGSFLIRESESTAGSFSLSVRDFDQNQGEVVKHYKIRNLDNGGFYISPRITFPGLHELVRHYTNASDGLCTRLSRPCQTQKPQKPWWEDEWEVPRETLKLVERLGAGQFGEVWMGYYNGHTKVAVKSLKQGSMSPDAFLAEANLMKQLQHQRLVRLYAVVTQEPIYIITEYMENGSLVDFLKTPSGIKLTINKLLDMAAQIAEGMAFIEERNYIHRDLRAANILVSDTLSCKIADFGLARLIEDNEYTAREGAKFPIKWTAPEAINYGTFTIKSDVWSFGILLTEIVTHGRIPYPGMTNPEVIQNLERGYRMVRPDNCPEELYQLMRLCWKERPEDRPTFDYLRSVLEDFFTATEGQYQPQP
Measured Endpoint: pKi
Answer as the number alone; pKi is minus log10 of concentration in mol/L.

Input: GET /values?readout=pKi&system=Tyrosine-protein kinase Lck (Homo sapiens)&item= CN(C)Cc1ccc(C2CC2C(=O)Nc2nc3ccc(-c4cn[nH]c4)cc3s2)cc1 (racemic)
Output: 7.34

###

assay: Half life in rat at 5 mg/kg, po; format: ADME, organism-based; design: dose 5 mg/kg, route oral; details: in vivo
Measured Endpoint: half-life (min)
Just the number in min, nothing appended.

Input: Need half-life of CN(C)Cc1ccc([C@H]2C[C@@H]2C(=O)Nc2nc3ccc(-c4cn[nH]c4)cc3s2)cc1 , thanks.
Output: 180
